// data source = patent US7879881B2

TARGET_OF_ASSAY: Human αvβ3 (Homo sapiens, UniProt P05106+P06756)
Construct: purchased Chemicon International Inc., Temecula, Calif
Sequence (P06756 31-889 limits assumed): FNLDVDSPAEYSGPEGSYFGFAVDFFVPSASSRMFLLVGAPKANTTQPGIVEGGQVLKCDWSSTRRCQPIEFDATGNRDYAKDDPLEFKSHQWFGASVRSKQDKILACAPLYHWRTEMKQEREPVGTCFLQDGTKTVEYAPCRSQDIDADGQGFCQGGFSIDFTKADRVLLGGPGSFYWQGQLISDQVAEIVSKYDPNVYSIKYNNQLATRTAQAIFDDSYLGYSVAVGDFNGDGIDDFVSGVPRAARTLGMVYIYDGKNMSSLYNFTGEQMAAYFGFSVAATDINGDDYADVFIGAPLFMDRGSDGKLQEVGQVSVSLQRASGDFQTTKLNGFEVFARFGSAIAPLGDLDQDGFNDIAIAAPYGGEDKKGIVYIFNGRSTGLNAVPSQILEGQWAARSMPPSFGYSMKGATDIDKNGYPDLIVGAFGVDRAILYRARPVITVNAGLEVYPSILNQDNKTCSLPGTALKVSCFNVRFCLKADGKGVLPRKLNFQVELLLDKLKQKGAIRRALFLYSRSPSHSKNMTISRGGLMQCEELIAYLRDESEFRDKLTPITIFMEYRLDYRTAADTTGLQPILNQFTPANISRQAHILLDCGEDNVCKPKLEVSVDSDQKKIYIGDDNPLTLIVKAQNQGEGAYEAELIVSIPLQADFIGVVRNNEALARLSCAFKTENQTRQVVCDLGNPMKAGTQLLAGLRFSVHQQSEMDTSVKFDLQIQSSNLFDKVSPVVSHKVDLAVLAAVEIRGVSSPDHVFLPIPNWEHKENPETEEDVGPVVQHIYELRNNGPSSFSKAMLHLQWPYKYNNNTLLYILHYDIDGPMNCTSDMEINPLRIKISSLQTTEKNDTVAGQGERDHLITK
Sequence (P06756 891-1048 partner limits assumed): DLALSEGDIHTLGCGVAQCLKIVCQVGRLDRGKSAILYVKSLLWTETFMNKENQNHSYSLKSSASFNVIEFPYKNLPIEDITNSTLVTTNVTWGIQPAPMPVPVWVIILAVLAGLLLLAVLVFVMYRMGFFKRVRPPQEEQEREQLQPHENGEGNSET
Sequence (P05106 27-788): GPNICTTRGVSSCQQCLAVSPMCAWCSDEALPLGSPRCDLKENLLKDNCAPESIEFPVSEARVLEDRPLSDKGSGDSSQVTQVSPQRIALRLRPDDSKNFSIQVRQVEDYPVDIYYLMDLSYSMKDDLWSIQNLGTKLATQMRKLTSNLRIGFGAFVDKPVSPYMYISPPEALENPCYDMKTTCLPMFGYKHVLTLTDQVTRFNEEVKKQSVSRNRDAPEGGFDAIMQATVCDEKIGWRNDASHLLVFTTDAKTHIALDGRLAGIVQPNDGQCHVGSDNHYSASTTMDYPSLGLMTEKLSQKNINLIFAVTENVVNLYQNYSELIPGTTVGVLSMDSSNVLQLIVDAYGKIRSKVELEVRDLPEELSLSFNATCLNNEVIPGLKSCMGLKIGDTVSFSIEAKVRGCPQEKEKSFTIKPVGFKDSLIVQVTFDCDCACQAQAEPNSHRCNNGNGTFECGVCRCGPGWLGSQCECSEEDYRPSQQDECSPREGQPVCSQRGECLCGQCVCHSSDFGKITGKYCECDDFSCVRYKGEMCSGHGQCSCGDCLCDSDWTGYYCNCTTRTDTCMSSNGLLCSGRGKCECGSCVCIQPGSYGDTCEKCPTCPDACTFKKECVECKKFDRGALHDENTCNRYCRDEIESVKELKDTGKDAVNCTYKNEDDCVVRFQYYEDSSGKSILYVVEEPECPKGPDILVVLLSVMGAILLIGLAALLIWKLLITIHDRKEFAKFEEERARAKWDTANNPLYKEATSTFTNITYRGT
PROCEDURE_SUMMARY: In Vitro Solid Phase Purified αvβ3 Binding Assay (vitronectin/αvβ3)
CONDITION_CONTEXT: vitronectin binding to immobilized purified human αvβ3; mean ± spread; read-out: αvβ3IC50
Reported log10(IC50) values follow for various molecules
PROPERTY: log10(IC50) (log10 of the value in nM)

* O=C(O)CC(CC1CCN(CCCc2ccc3c(n2)NCCC3)CC1)c1cccc(F)c1 (racemic) | 0.83
* COc1cc(C(CC(=O)O)CC2CCN(C(=O)CCc3ccc4c(n3)NCCC4)CC2)ccc1O (stereo not drawn) [Cpd 76a] | 0.04
* O=C(O)CC(CCC1CCN(C(=O)c2cccc(NC3=NCCCC3)c2)CC1)c1ccc2c(c1)OCO2 (stereo not drawn) | 1.47
* O=C(O)CC(CC1CCN(C(=O)CCc2ccc3c(n2)NCCC3)CC1)c1ccc(-c2ccccc2)c(F)c1 (stereo not drawn) | 0.26
* COc1ncc(C(CC(=O)O)CC2CCN(C(=O)CCc3ccc4c(n3)NCCC4)CC2)cn1 (stereo not drawn) | 0.00
* O=C(O)CC(CCC1CCN(C(=O)c2cccc(NC3=NCC(O)CN3)c2)CC1)c1ccc2c(c1)OCO2 (stereo not drawn) | 0.23
* O=C(O)CC(CCC1CCN(C(=O)CCCNc2ccccn2)CC1)c1cnc2ccccc2c1 (stereo not drawn) | 0.66
* CSc1cccc(C(CC(=O)O)CC2CCN(C(=O)CCc3ccc4c(n3)NCCC4)CC2)c1 (racemic) | 0.08
* O=C(O)CC(CC1CCN(C(=O)CCc2ccc3c(n2)NCCC3)CC1)C1CNc2ccccc2C1 (single isomer, unassigned) [Cpd 19-4] | 0.11
* O=C(O)CC(CC1CCN(C(=O)CCc2ccc3c(n2)NCCC3)CC1)c1ccc2ccccc2c1 (stereo not drawn) [Cpd 56] | 0.28
* O=C(O)CC(CC1CCN(C(=O)CCc2ccc3c(n2)NCCC3)CC1)C1CNc2ccccc2C1 (single isomer, unassigned) [Cpd 19-3] | 1.65
* O=C(O)CC(CC1CCN(C(=O)CCc2ccc3c(n2)NCCC3)CC1)c1cccc(C(F)(F)F)c1 (stereo not drawn) | 0.82
* O=C(O)CC(c1ccc2c(c1)OCO2)C1CCN(C(=O)CCCc2ccc3c(n2)NCCC3)CC1 (stereo not drawn) | 0.28
* O=C(O)CC(c1cnc2c(c1)CCCC2)C1CCN(C(=O)CCCc2ccc3c(n2)NCCC3)CC1 (single isomer, unassigned) [Cpd 58b] | 1.92
* O=C(O)CC(c1cnc2ccccc2c1)C1CCN(C(=O)Cc2cccc(NC3=NCC(O)CN3)c2)CC1 (stereo not drawn) | 0.56
* O=C(O)CC(CC1CCN(C(=O)CCc2ccc3c(n2)NCCC3)CC1)c1ccc2c(c1)OCC2 (single isomer, unassigned) [Cpd 36a] | -0.40
* O=C(O)CC(CCC1CCN(C(=O)Cc2ccc3c(n2)NCCC3)CC1)c1ccc2c(c1)OCO2 (stereo not drawn) | 1.98
* O=C(O)CC(CC1CCN(C(=O)CCc2ccc3c(n2)NCCC3)CC1)c1ccc2c(c1)CCO2 (stereo not drawn) | 0.54
* O=C(O)CC(CCC1CCN(C(=O)CCCNc2ccccn2)CC1)c1ccc2c(c1)OCO2 (stereo not drawn) | 2.47
* O=C(O)CC(CCC1CCN(C(=O)CCc2ccc3c(n2)NCCC3)CC1)c1cnc2ccccc2c1 (stereo not drawn) | 0.48
